B1: TRIM29 (parent)
chain: FAEKGELRKSIFSESRKPTVSIME

Variants of: B1
Assay: protein stability index of a GFP-peptide fusion (GPS, HEK-293T) (PSI 1-6); higher = more stable;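 also: lentivirally expressed fusions sorted by FACS into six bins by GFP to DsRed ratio, PSI derived from sequencing read proportions per bin multiplied by bin number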
Conditions: c terminus: a fixed tail appended
Everything with protein stability index lower than 2 is false; everything else, including exactly 2, is true.

>>> cat("FAEKGELRKSIDSESRKPTVSIME [F12D]")
"true"
>>> cat("FAEKGELRKSIFSESRKMTVSIME [P18M]")
"true"
>>> cat("FAEKGELRKSIFCESRKPTVSIME [S13C]")
"false"
>>> cat("FAEVGELRKSIFSESRKPTVSIME [K4V]")
"true"
>>> cat("FAEKGETRKSIFSESRKPTVSIME [L7T]")
"true"
>>> cat("FAEKGELRKSIFSESRKPTVSIRE [M23R]")
"true"

In plain terms: is recorded protein stability index at least 2 for FAEPGELRKSIFSESRKPTVSIME [K4P] ?
false

Input FAEKGELRKIIFSESRKPTVSIME [S10I]
true

Input FAEKGELGKSIFSESRKPTVSIME [R8G]
false

Input FAAKGELRKSIFSESRKPTVSIME [E3A]
true

Input FAEKGEHRKSIFSESRKPTVSIME [L7H]
true

Every entry's value here was drawn from the supplement of paper PMC10567573.
